The values you see were collected from PubChem BioAssay AID330.

Exercise: for every item that follows, state its recorded T/C.
tested on: P388 leukemia ip, CD2F1 mice, survival T/C; experiment: NCI In Vivo Anticancer Drug Screen. Data for tumor model P388 Leukemia (intraperitoneal) in CD2F1 (CDF1) mice; conditions: endpoint: median survival time; dose: 100.0 mg/kg/injection; schedule: Q01DX005 (ip); vehicle: saline with Tween-80; higher = longer survival
Inconclusive results and toxic doses are left out.

The compound listed as COC(=O)CC1(C(=O)OC)Oc2ccc(Br)cc2C(=O)N1c1cccc(Cl)c1Cl (stereo unspecified) shows T/C equal to 91 % of control

The compound listed as COC(=O)/C=C1\C2OC(C1C(=O)OC)C1OC(C)(C)OC21 (stereo unspecified) shows T/C equal to 103 % of control

The compound listed as "C(#Cc1ccncc1)c1ccncc1" shows T/C equal to 98 % of control

The compound listed as "O=C1CSCN1N1CSCC1=O" shows T/C equal to 102 % of control

The compound listed as "N=c1nc(N)nc2n1N=C(c1ccc(Cl)cc1)CS2" shows T/C equal to 90 % of control

The compound listed as "CC1(C)OC(C(F)(F)F)(C(F)(F)F)c2cc(C(C)(C)C)cc(C(O)(C(F)(F)F)C(F)(F)F)c2S1" shows T/C equal to 120 % of control

###

test system: P388 leukemia ip, CD2F1 mice, survival T/C; experiment: NCI In Vivo Anticancer Drug Screen. Data for tumor model P388 Leukemia (intraperitoneal) in CD2F1 (CDF1) mice; settings: endpoint: median survival time; dose: 25.0 mg/kg/injection; schedule: Q01DX009 (ip); vehicle: saline with Tween-80
Inconclusive results and toxic doses are left out. The calls were made as follows: active = survival T/C of 150% or more; inactive = T/C below 125% in these data.
Pick one: active, inactive

Query: Status in this test for "CCCCc1n(O)c(-c2ccccc2)c(C)[n+]1[O-]" ?
Response: inactive

Query: Status in this test for "CCCCOc1cc(C(=O)NCCN(CC)CC)c2ccccc2n1" ?
Response: inactive

Query: Status in this test for "COc1ccc(Br)cc1/C=C/[N+](=O)[O-]" ?
Response: inactive

Query: Status in this test for "CN1CC(C(=O)O)=Nc2c1nc(N)[nH]c2=O" ?
Response: inactive

Query: Status in this test for "Nc1c(C(=O)O)[nH]c(=O)[nH]c1=O" ?
Response: inactive

Query: Status in this test for CC(C)CC([NH-])C(=O)O.[C-]#[O+].[C-]#[O+].[Rh] (stereo unspecified) ?
Response: inactive

Query: Status in this test for "C=CC(=NC(C)(C)C)Nc1ccccc1" ?
Response: inactive

Query: Status in this test for "CCOc1cc(C=Nc2cc(Cl)c(O)c(Cl)c2)ccc1N(CCCl)CCCl" ?
Response: active

Query: Status in this test for CCCCCC(C[N+](C)(C)C)C(=O)/C=C/c1ccc(Cl)c(Cl)c1 (stereo unspecified) ?
Response: inactive

Query: Status in this test for CCOC(=O)c1ccc2c(c1)C(C)(SC)C(=O)N2 (stereo unspecified) ?
Response: inactive

Query: Status in this test for "NC(=O)c1ccc(C(N)=O)cc1" ?
Response: inactive

Query: Status in this test for "Cn1c(=O)c2conc2n(-c2ccc(Cl)cc2)c1=O" ?
Response: inactive

Query: Status in this test for CC(=O)NC1C(OC(C)=O)OC(CS[As](C)C)C(OC(C)=O)C1OC(C)=O (stereo unspecified) ?
Response: inactive

Query: Status in this test for "O=c1ccc(=O)n(-c2ccccc2)[nH]1" ?
Response: inactive

Query: Status in this test for O=C(O)C(CCc1nc2ccccc2[nH]1)NS(=O)(=O)c1ccccc1 (stereo unspecified) ?
Response: inactive

Query: Status in this test for CC1N/C(=C/c2ccccc2)C(=O)O1 (stereo unspecified) ?
Response: inactive

Query: Status in this test for "CCCCCN(CCCCC)CCCCC" ?
Response: inactive

Query: Status in this test for "O=[N+]([O-])c1nc2ccccc2[nH]1" ?
Response: inactive

Query: Status in this test for "O=C(CC(=O)N1CCN(c2ccccc2)CC1)N1CCN(c2ccccc2)CC1" ?
Response: inactive

Query: Status in this test for N#CC1(c2ccccc2)OC1(C#N)c1ccccc1 (stereo unspecified) ?
Response: inactive

Query: Status in this test for COC(=O)C1(C(C)C)N=C(c2ccccc2)OO1 (stereo unspecified) ?
Response: inactive

Query: Status in this test for "CN1CCC2(CC1)COCc1ccccc12" ?
Response: inactive

Query: Status in this test for NC(Cc1ccccc1I)c1nn[nH]n1 (stereo unspecified) ?
Response: inactive

Query: Status in this test for CCCCN(CCCC)CC(O)c1cc2ccc(C(F)(F)F)cc2c2cc(C(F)(F)F)ccc12 (stereo unspecified) ?
Response: inactive

Query: Status in this test for "O=C(NNc1ccc(F)cc1)C12CC3CC(CC(C3)C1)C2" ?
Response: inactive

Query: Status in this test for "O=C(O)COc1ccc(-c2ccc(Br)cc2)cc1" ?
Response: inactive

###

test system: P388 leukemia ip, CD2F1 mice, survival T/C; assay: NCI In Vivo Anticancer Drug Screen. Data for tumor model P388 Leukemia (intraperitoneal) in CD2F1 (CDF1) mice; settings: endpoint: median survival time; dose: 120.0 mg/kg/injection; schedule: Q01DX005 (ip); vehicle: saline with Tween-80; higher = longer survival
Inconclusive results and toxic doses are left out.
observable: T/C

The compound listed as "CC(C)C(=O)CC(=O)CCC(=O)Nc1cccc(Cl)c1" shows T/C equal to 102 % of control

The compound listed as "C=CCC1(C)C(=O)CCC1=O" shows T/C equal to 102 % of control

The compound listed as COC1(C)CC(c2ccccc2)=NO1 (stereo not drawn) shows T/C equal to 103 % of control

The compound listed as COc1ccc(C23OCN(c4ccccc4)C2(c2ccc(OC)cc2)c2ccccc2N3C)cc1 (stereo not drawn) shows T/C equal to 100 % of control

The compound listed as COc1cc([C@H]2c3cc4c(cc3CC3COC(=O)[C@@H]32)OCO4)cc(Br)c1O (stereo partly drawn) shows T/C equal to 110 % of control

The compound listed as COc1ccc(/C=N/NC(=O)C(O)c2ccccc2)cc1 (stereo not drawn) shows T/C equal to 90 % of control

The compound listed as "COc1ccc(C(=O)c2ccccc2)c(OC(=O)Nc2c(Cl)cccc2Cl)c1" shows T/C equal to 107 % of control

The compound listed as "CN(C)CCCSc1c2ccccc2nc2cccc([N+](=O)[O-])c12" shows T/C equal to 106 % of control

The compound listed as O=C(NN1C(=O)CSC1c1ccc(F)cc1)c1ccncc1 (stereo not drawn) shows T/C equal to 100 % of control

The compound listed as "Cc1ccc2c(c1)S(=O)(=O)NC2=O" shows T/C equal to 92 % of control

The compound listed as COC(=O)C(=O)C(C#N)c1ccc(C)cc1 (stereo not drawn) shows T/C equal to 104 % of control

The compound listed as O=C(CC1(O)C(=O)Nc2ccccc21)c1cccc2ccccc12 (stereo not drawn) shows T/C equal to 113 % of control

The compound listed as "O=C1C=CSc2ccccc2N1" shows T/C equal to 103 % of control

The compound listed as "CCOC(=O)c1cnc2cc(C(F)(F)F)ccc2c1N=[N+]=[N-]" shows T/C equal to 96 % of control

The compound listed as CC(C)c1c(C[N+](C)([O-])C(C)Cc2ccccc2)n(C)n(-c2ccccc2)c1=O (stereo not drawn) shows T/C equal to 102 % of control

The compound listed as "O=C(Nc1ccc(Cl)c(Cl)c1)Oc1ccccc1Cl" shows T/C equal to 107 % of control

The compound listed as "ClCc1nnc2n1-c1ccc(Cl)cc1SC2" shows T/C equal to 107 % of control

The compound listed as "O=C(/C(=C(/[O-])C(F)(F)F)[n+]1cccc2ccccc21)C(F)(F)F" shows T/C equal to 91 % of control

The compound listed as "NC(=O)c1sc(N2CCCC2)nc1N" shows T/C equal to 105 % of control

The compound listed as "Cc1ccccc1-n1cccc1C(=O)O" shows T/C equal to 93 % of control

The compound listed as COc1cc(C2c3cc4c(cc3OC(C)(O)C2C(C)=O)OCO4)cc(OC)c1OC (stereo not drawn) shows T/C equal to 94 % of control

The compound listed as "O=c1nc2n(c3ncccc13)CC=NN2" shows T/C equal to 100 % of control

The compound listed as CC1=CC(=O)C(O)C2(C)C(CCC3(C)OCCO3)C=C(O[Si](C)(C)C(C)(C)C)CC12 (stereo not drawn) shows T/C equal to 96 % of control

The compound listed as C/C=C\c1noc2c1C(=O)OC(C)C2 (stereo not drawn) shows T/C equal to 96 % of control

The compound listed as COC1SCCn2c1nc1ccccc1c2=O (stereo not drawn) shows T/C equal to 98 % of control

The compound listed as "Cc1c(-c2c(Cl)cccc2Cl)noc1CN(C)C" shows T/C equal to 100 % of control

The compound listed as "CCCCc1c(C#N)c(=O)n2c(N)c(C(=O)OCC)cnc2c1SC" shows T/C equal to 92 % of control

The compound listed as "Nc1nnc(-c2ccc(-c3nnc(N)o3)cc2)o1" shows T/C equal to 100 % of control

The compound listed as "O=C(Nc1ccccc1)c1cc2ccccc2oc1=O" shows T/C equal to 94 % of control

The compound listed as "Cc1cc(Nc2ccc3c(c2)OCO3)c2cc(C3CCCCC3)ccc2n1" shows T/C equal to 91 % of control

The compound listed as "CCC(=O)NN1C(=O)c2ccccc2C1=O" shows T/C equal to 104 % of control

The compound listed as O=C1CCC(c2nc3ccccc3[nH]2)N1Cc1csc(-c2ccccc2)n1 (stereo not drawn) shows T/C equal to 93 % of control

The compound listed as "CC1(C)OC(C(F)(F)F)(C(F)(F)F)c2cc(C(C)(C)C)cc(C(O)(C(F)(F)F)C(F)(F)F)c2S1" shows T/C equal to 112 % of control

The compound listed as "C[C@H]1C[C@](C)(CO)Oc2oc3ccccc3c(=O)c21" shows T/C equal to 109 % of control

The compound listed as "O=C(CC(=O)c1ccc(Cl)s1)C(=O)Nc1cccc(C(F)(F)F)c1" shows T/C equal to 102 % of control

The compound listed as BrC1C2CCC3OC3C12 (stereo not drawn) shows T/C equal to 103 % of control

The compound listed as CC(=O)CCC1C(=O)N(C)C(=O)c2ccccc21 (stereo not drawn) shows T/C equal to 99 % of control

The compound listed as Cc1cccc(C(C#N)C(=O)CCCC(=O)Nc2ccccc2[N+](=O)[O-])c1 (stereo not drawn) shows T/C equal to 100 % of control

The compound listed as "O=C(CNC(=O)c1ccccc1)N/N=C/c1ccco1" shows T/C equal to 101 % of control

The compound listed as "Clc1ccc(-c2nnc(-c3ccncc3)o2)c(Cl)c1" shows T/C equal to 93 % of control

The compound listed as "O/N=C(\c1ccccc1)C1c2ccccc2-c2ccccc21" shows T/C equal to 94 % of control

The compound listed as "CCCCOC(=O)NC(=O)c1cc2cc(I)cc(I)c2oc1=O" shows T/C equal to 94 % of control

The compound listed as N#CC(C(=O)C(=O)Nc1cccc(C(F)(F)F)c1)c1ccccc1Cl (stereo not drawn) shows T/C equal to 97 % of control

The compound listed as "C[Si](C)(C)N1CCOC1=O" shows T/C equal to 103 % of control

The compound listed as COC(=O)C1(c2ccc(OC)cc2)NC(c2ccccc2)C2C(=O)N(c3ccc(OC)cc3)C(=O)C21 (stereo not drawn) shows T/C equal to 96 % of control

The compound listed as CCCCC[C@@H]1CC=CC(NC(=O)OCc2ccccc2)C1C=O (stereo partly drawn) shows T/C equal to 103 % of control

The compound listed as CC1(C)NN=C([N+](=O)[O-])C1c1ccccc1 (stereo not drawn) shows T/C equal to 111 % of control

The compound listed as O=C1C=CC(=O)[C@H]2CC=C3OC4OC5(CCCCC5)OC4[C@H]3[C@@H]12 (stereo partly drawn) shows T/C equal to 94 % of control
